Values were extracted from the RNAGym collection of RNA variant scans (doi:10.7554/elife.80360).

B1: Twister Ribozyme (parent)
chain: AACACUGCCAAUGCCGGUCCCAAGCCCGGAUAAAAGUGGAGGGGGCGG

- Variants of: B1
- assayRemarks: self-cleavage, relative activity (ratio to wild type); higher = more cleavage; co-transcriptional

{"changes": "G45A G48A", "self-cleavage": 0.785}
{"changes": "U12C U18C", "self-cleavage": 0.564}
{"changes": "C20U G41C", "self-cleavage": 0.133}
{"changes": "U12G G29C", "self-cleavage": 0.677}
{"changes": "A2U C20A", "self-cleavage": 0.08}
{"changes": "C27G A32C", "self-cleavage": 0.137}
{"changes": "A2U C9G", "self-cleavage": 0.119}
{"changes": "C3G U12G", "self-cleavage": 0.4}
{"changes": "A2C G39C", "self-cleavage": 0.105}
{"changes": "G28A G29U", "self-cleavage": 0.9}
{"changes": "A2G U12C", "self-cleavage": 0.316}
{"changes": "C8A G13U", "self-cleavage": 0.261}
{"changes": "G41A G42C", "self-cleavage": 0.094}
{"changes": "C8U G47A", "self-cleavage": 0.43}
{"changes": "U12G G44U", "self-cleavage": 0.799}
{"changes": "A30U G42U", "self-cleavage": 0.434}
{"changes": "C20A G47C", "self-cleavage": 0.108}
{"changes": "A2C G47C", "self-cleavage": 0.0493}
{"changes": "A4G A11C", "self-cleavage": 0.663}
{"changes": "C15A G42U", "self-cleavage": 0.14}
{"changes": "U37A G43C", "self-cleavage": 0.149}
{"changes": "A32C A40G", "self-cleavage": 0.134}
